Experimental Target: HIS-TGFβR1 T204D (Homo sapiens (Human), UniProt P36897, T204D)
Sequence (P36897 34-503 T204D): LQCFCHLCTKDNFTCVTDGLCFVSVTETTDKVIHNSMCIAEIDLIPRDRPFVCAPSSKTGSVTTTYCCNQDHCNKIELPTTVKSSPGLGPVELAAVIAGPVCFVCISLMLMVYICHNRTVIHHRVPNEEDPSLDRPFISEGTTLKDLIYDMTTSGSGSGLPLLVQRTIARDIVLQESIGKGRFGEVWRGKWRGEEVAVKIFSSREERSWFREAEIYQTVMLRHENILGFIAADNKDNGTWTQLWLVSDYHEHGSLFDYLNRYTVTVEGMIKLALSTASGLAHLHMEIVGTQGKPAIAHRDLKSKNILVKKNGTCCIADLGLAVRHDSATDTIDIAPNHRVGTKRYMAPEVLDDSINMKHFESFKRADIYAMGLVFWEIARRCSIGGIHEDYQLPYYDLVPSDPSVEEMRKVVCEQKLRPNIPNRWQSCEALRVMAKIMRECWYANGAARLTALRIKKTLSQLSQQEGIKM
Experiment: HTRF probe-displacement assay, TGFβR1
Type: binding
Measurement Parameters: HIS-TGFβR1 T204D, 1 nM; 1 hour at room temperature
Measured IC50, listed per entry for reference.
Result Type: IC50 (nM)

* c1cc(-c2nc(-n3ccc4cnccc43)c3cccn3n2)nc(C2CC2)c1 [Example 27] | 1.3
* Cc1nc(-c2nc(-n3ccc4cnccc43)c3cccn3n2)ccc1F [Example 23] | 1.3
* FC(F)c1cccc(-c2nc(Nc3ccnc4cccnc34)c3cccn3n2)n1 [Example 22] | 5.8
* Cc1cccc(-c2nc(Nc3ccnc4cc(C(F)(F)F)ccc34)c3cccn3n2)n1 [Example 17] | 1.4
* COc1ccc2nccc(Nc3nc(-c4cccc(C)n4)nn4cccc34)c2c1 [Example 11] | 6.4
* CSc1nccc(-c2nc(-n3ccc4cnccc43)c3cccn3n2)n1 [Example 35] | 2.2
* FC(F)(F)c1cccc(-c2nc(-n3ccc4cnccc43)c3cccn3n2)n1 [Example 28] | 3.8
* c1ccc(-c2nc(-n3cnc4cnccc43)c3cccn3n2)nc1 [Example 9] | 5.1
* COc1ccc2c(Nc3nc(-c4cccc(C(F)F)n4)nn4cccc34)ccnc2c1 [Example 21] | 1.8
* c1ccc(-c2nc(-n3ccc4cnccc43)c3cccn3n2)nc1 [Example 8] | 1.1
* Cc1cccc(-c2nc(Nc3ccnc4cccnc34)c3cccn3n2)n1 [Example 19] | 5.1
* Cn1cnc2ccc(Nc3nc(-c4ccccn4)nn4cccc34)cc21 [Example 7] | 240
* FC(F)c1cccc(-c2nc(-n3ccc4cnccc43)c3cccn3n2)n1 [Example 29] | 2.9
* Cc1cccc(-c2nc(Nc3ccnc4ccc(F)cc34)c3cccn3n2)n1 [Example 14] | 6.6
* Cc1cccc(-c2nc(-n3ccc4cnccc43)c3cccn3n2)n1 [Example 5] | 0.96
* c1ccc(-c2nc(-n3ccc4ccncc43)c3cccn3n2)nc1 [Example 10] | 310
* Cc1cccc(-c2nc(Nc3ccnc4ccncc34)c3cccn3n2)n1 [Example 18] | 4.4
* COc1ccc2c(Nc3nc(-c4cccc(C)n4)nn4cccc34)ccnc2c1 [Example 13] | 1.1
* Cc1cccc(-c2nc(Nc3ccnc4ccc(Cl)cc34)c3cccn3n2)n1 [Example 15] | 4.7
